tested on: K12877-001-R-J1-PDC complex spheroid viability; assay: Anticancer human tumor K12877-001-R-J1-PDC patient-derived lung adenocarcinoma cell line growth inhibition [RAS]; conditions: second compound 0.316 µM; first compound 0.0316 µM; stronger effect = lower value;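 note: tumour cells co-cultured with HUVEC and mesenchymal stem cells in spheroids; spheroids exposed to agents for one week before readout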
Provide the recorded viability, T/C for the entries that follow.
The figure you give is taken to be in %; do not add the unit.

Known value: K12877-001-R-J1-PDC complex spheroid viability viability, T/C of the compound C=CC(=O)Nc1cc(Nc2nccc(-c3cn(C)c4ccccc34)n2)c(OC)cc1N(C)CCN(C)C + C#Cc1c(F)ccc2cc(O)cc(-c3ncc4c(N5CC6CCC(C5)N6)nc(OCC56CCCN5CC(F)C6)nc4c3F)c12 equals 106

# CC(Nc1ccc2c(c1)OCCn1cc(N3C(=O)OCC3C(F)F)nc1-2)C(N)=O (centres undefined) + C#Cc1c(F)ccc2cc(O)cc(-c3ncc4c(N5CC6CCC(C5)N6)nc(OCC56CCCN5CC(F)C6)nc4c3F)c12 with K12877-001-R-J1-PDC complex spheroid viability: viability, T/C is 110

Assay K12877-001-R-J1-PDC complex spheroid viability, sample CCN1CCN(Cc2ccc(Nc3ncc(F)c(-c4cc(F)c5nc(C)n(C(C)C)c5c4)n3)nc2)CC1 + C#Cc1c(F)ccc2cc(O)cc(-c3ncc4c(N5CC6CCC(C5)N6)nc(OCC56CCCN5CC(F)C6)nc4c3F)c12 , viability, T/C read: 98.6

Given the compound O=C(c1ccc(F)c(F)c1Nc1ccc(I)cc1F)N1CC(O)([C@@H]2CCCCN2)C1 + C#Cc1c(F)ccc2cc(O)cc(-c3ncc4c(N5CC6CCC(C5)N6)nc(OCC56CCCN5CC(F)C6)nc4c3F)c12 and test system K12877-001-R-J1-PDC complex spheroid viability, the measured viability, T/C is 94.9

Fill in: K12877-001-R-J1-PDC complex spheroid viability viability, T/C for C=CC(=O)Nc1cc(Nc2nccc(-c3cn(C)c4ccccc34)n2)c(OC)cc1N(C)CCN(C)C + C=CC(=O)N1CCN(c2nc(OCC3CCCN3C)nc3c(F)c(-c4nc(N)cc(C)c4C(F)(F)F)c(Cl)cc23)C(C)C1 = 82.3

Record CC(=O)OC12COC1CC(O)C1(C)C(=O)C(O)C3=C(C)C(OC(=O)C(O)C(NC(=O)OC(C)(C)C)c4ccccc4)CC(O)(C(OC(=O)c4ccccc4)C21)C3(C)C (centres undefined) + C=CC(=O)N1CCN(c2nc(OCC3CCCN3C)nc3c(F)c(-c4nc(N)cc(C)c4C(F)(F)F)c(Cl)cc23)C(C)C1 has K12877-001-R-J1-PDC complex spheroid viability viability, T/C equal to 5.94

Bench note, K12877-001-R-J1-PDC complex spheroid viability: entry Nc1ccn(C2OC(CO)C(O)C2(F)F)c(=O)n1 (centres undefined) + C#Cc1c(F)ccc2cc(O)cc(-c3ncc4c(N5CC6CCC(C5)N6)nc(OCC56CCCN5CC(F)C6)nc4c3F)c12 , its viability, T/C = 7.04

C=CC(=O)N1CCN(c2nc(OCC3CCCN3C)nc3c(F)c(-c4nc(N)cc(C)c4C(F)(F)F)c(Cl)cc23)C(C)C1 (centres undefined) + C#Cc1c(F)ccc2cc(O)cc(-c3ncc4c(N5CC6CCC(C5)N6)nc(OCC56CCCN5CC(F)C6)nc4c3F)c12 on K12877-001-R-J1-PDC complex spheroid viability gives viability, T/C = 83.4

K12877-001-R-J1-PDC complex spheroid viability data for CC(C)NCC(C(=O)N1CCN(c2ncnc3c2C(C)CC3O)CC1)c1ccc(Cl)cc1 (centres undefined) + C=CC(=O)N1CCN(c2nc(OCC3CCCN3C)nc3c(F)c(-c4nc(N)cc(C)c4C(F)(F)F)c(Cl)cc23)C(C)C1 ; its viability, T/C: 79.9
